# assay notes: pharmacokinetics and bioavailability in mouse plasma
# Type: in vivo, Crl:CD-1 mice
# assay conditions: male, Crl:CD-1, inhaled or intranasal; mouse plasma; 3 mg/kg IN
experimental readout: Tmax (min)

Cc1cc(Cn2ncc3c(-c4cccc(C#N)c4F)nc(N)nc32)ccc1N [11o]: 30

----------
# assay notes: pharmacokinetics and brain/plasma ratio in mouse brain
# Type: in vivo, Crl:CD-1 mice
# assay conditions: male, Crl:CD-1, mouse; 3 mg/kg PO; Brain AUClast/Plasma AUClast; read-out: B/P Ratio
experimental readout: Kp

Cc1cc(Cn2ncc3c(-c4cccc(C#N)c4F)nc(N)nc32)ccc1N [11o]: 0.0977

----------
# assay notes: pharmacokinetics and bioavailability in mouse plasma
# Assay type: in vivo, Crl:CD-1 mice
# assay conditions: male, Crl:CD-1, mouse, plasma, po, 1 mg/kg, mouse plasma; 1 mg/kg PO; read-out: Cmax
experimental readout: Cmax (ng/mL)

Cc1cc(Cn2ncc3c(-c4cccc(C#N)c4F)nc(N)nc32)ccc1N [11o]: 36.8

----------
# assay notes: pharmacokinetics and bioavailability in mouse plasma
# Type: in vivo, Crl:CD-1 mice
# assay conditions: male, Crl:CD-1, inhaled or intranasal; mouse plasma; 10 mg/kg IN
# Experimental: Male Crl:CD-1 mice of 9~10 weeks of age were purchased from Charles River Laboratories, USA and maintained at standard food and water ad libitum in temperature-controlled room with 12 h on-off light cycle before the experiment. […] Resulting plasma were stored in a freezer set to maintain −70 °C until analyzed for 11o concentration. […] Dose proportionality was assessed, and bioavailability was calculated for PO dosing.
experimental readout: Tmax

Cc1cc(Cn2ncc3c(-c4cccc(C#N)c4F)nc(N)nc32)ccc1N [11o]: 30 min

----------
# assayed target: hA2A receptors (Homo sapiens, UniProt P29274)
# Construct: purchased PerkinElmer RBHA2AM
# Sequence (P29274 whole entry): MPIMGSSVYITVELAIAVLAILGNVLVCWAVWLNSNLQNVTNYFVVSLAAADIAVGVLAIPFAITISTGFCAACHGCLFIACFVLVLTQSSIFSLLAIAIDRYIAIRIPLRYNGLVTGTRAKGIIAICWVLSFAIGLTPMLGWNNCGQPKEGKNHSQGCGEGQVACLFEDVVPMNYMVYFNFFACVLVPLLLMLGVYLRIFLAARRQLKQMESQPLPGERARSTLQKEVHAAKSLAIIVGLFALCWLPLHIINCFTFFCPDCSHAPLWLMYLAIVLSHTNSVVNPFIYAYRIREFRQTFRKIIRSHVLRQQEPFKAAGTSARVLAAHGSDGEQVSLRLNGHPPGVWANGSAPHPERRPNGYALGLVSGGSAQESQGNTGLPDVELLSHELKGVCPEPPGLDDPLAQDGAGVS
# assay notes: radioligand binding to human A2A receptors, HEK-293 membranes
# assay conditions: average of duplicate experiments
experimental readout: log10 of Ki (log10 of the value in nM)

N#Cc1cccc(-c2nc(N)nc3c2cnn3Cc2ccc(N)cc2F)n1 [11f]: 1.03
N#Cc1ccnc(-c2nc(N)nc3c2cnn3Cc2c(F)cc(N)cc2F)c1 [11p]: 1.67
N#Cc1cccc(-c2nc(N)nc3c2cnn3Cc2ccc(N)cc2)n1 [11b]: 1.49
N#Cc1cccc(-c2nc(N)nc3c2cnn3Cc2ccc(N)c(C(F)(F)F)c2)c1 [11w]: 0.29
N#Cc1cccc(-c2nc(N)nc3c2cnn3Cc2ccc(N)cc2F)c1F [11j]: 1.21

----------
# assay notes: maximum tolerated dose, single oral administration, rat
# assay conditions: both sexes, in vivo, single oral administration, male and female Sprague Dawley rats
experimental readout: MTD

Cc1cc(Cn2ncc3c(-c4cccc(C#N)c4F)nc(N)nc32)ccc1N [11o]: > 1000 mg/kg

----------
# assay notes: pharmacokinetics and bioavailability in mouse plasma
# Format: in vivo, Crl:CD-1 mice
# assay conditions: male, Crl:CD-1, mouse, plasma, po, 1 mg/kg, mouse plasma; 1 mg/kg PO
experimental readout: AUC(0-t) (ng·h/mL)

Cc1cc(Cn2ncc3c(-c4cccc(C#N)c4F)nc(N)nc32)ccc1N [11o]: 176

----------
# assay notes: pharmacokinetics and brain/plasma ratio in mouse brain
# Format: in vivo, Crl:CD-1 mice
# assay conditions: male, Crl:CD-1, inhaled or intranasal; mouse brain; 1 mg/kg IN
experimental readout: Cmax

Cc1cc(Cn2ncc3c(-c4cccc(C#N)c4F)nc(N)nc32)ccc1N [11o]: 9.63 ng/mL
